// values below are reported normalized growth
assay: chemical genetic growth profiling, strain panel (AID 1159580);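 also: tested at 20 µM; growth read once vehicle control cultures reached saturation at 30 °C; 1 = growth at the plate median or of vehicle wells; lower values mean less growth of the strain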; settings: S. cerevisiae deletion strains, growth OD, locus YNL298W, strain CLA4, active compounds read low
About 2,000 (36%) of roughly 5,500 compounds were called active. Inconclusive results (about 18%) are left out. The list shows a part of the results.
Value kind: normalized growth

Compound	Result number
C/C=C(/C)C(=O)O[C@@H]1[C@H](OC(C)=O)[C@@]2(CO)C(CC1(C)C)C1=CCC3[C@@]4(C)CC[C@H](O[C@@H]5O[C@H](C(=O)O)[C@@H](O[C@@H]6O[C@H](CO)[C@@H](O)[C@H](O)[C@H]6O)[C@H](O)[C@H]5O[C@@H]5O[C@H](CO)[C@@H](O)[C@H](O)[C@H]5O)[C@](C)(CO)C4CC[C@@]3(C)[C@]1(C)C[C@H]2O (stereo not given in full)	1.01
COc1ccc2c(c1)c(CC(=O)O)c(C)n2C(=O)c1ccc(Cl)cc1	0.944
CC1(C)CC[C@@]2(C(=O)O)C(C1)C1=CCC3[C@@]4(C)CC[C@H](O)C(C)(C)C4CC[C@@]3(C)[C@]1(C)C[C@@H]2O (stereo not given in full)	1.02
C[C@@H]1OC(O[C@H]2[C@H](OC(=O)[C@]34CCC(C)(C)CC3C3=CCC5[C@@]6(C)CC[C@H](OC7O[C@@H](C)[C@H](O[C@@H]8OC[C@@H](O)[C@H](O)[C@H]8O)[C@@H](O)[C@H]7O)C(C)(C)C6CC[C@@]5(C)[C@]3(C)CC4O)OC[C@H](O)[C@H]2O)[C@H](O)[C@H](O)[C@H]1O[C@@H]1O[C@H](CO)[C@@H](O)[C@H](O)[C@H]1O (stereo not given in full)	0.838
CC(C)=CCCC1(C)C=Cc2c(O)c3c(c(CC=C(C)C)c2O1)OC12C(=CC4CC1C(C)(C)OC2(C/C=C(/C)C(=O)O)C4O)C3=O (stereo not given)	0.955

---

experiment: chemical genetic growth profiling, strain panel (AID 1159580); settings: S. cerevisiae deletion strains, growth OD, locus YKL068W, active compounds read low
Out of some 5,500 compounds screened, about 2,000 (36%) were called active. Roughly 18% stayed inconclusive and do not appear here. Some of the results follow.
Value kind: normalized growth

Molecule	Result number
COc1cc(C(=O)O[C@H]2CC[C@@]3(C)[C@@H]4CC[C@H]5[C@]6(O)C[C@H](O)[C@@]7(O)[C@@H](CN8C[C@@H](C)CC[C@H]8[C@@]7(C)O)[C@]6(O)C[C@@]53O[C@]24O)cc(OC)c1OC	0.988
C/C=C(/C)C(=O)O[C@H]1CC[C@@]2(C)[C@@H]3CC[C@H]4[C@]5(O)C[C@H](O)[C@@]6(O)[C@@H](CN7C[C@@H](C)CC[C@H]7[C@@]6(C)O)[C@]5(O)C[C@@]42O[C@]13O	0.987
CC(=O)OC1CC[C@@]2(C)C(CC[C@]3(C)C2CCC2C4CC(C)(C)CCC4(C(=O)O)CC[C@]23C)C1(C)C (stereo partly drawn)	1.02

---

// values below are reported normalized growth
test: chemical genetic growth profiling, strain panel (AID 1159580);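 also: tested at 20 µM; growth read once vehicle control cultures reached saturation at 30 °C; 1 = growth at the plate median or of vehicle wells; lower values mean less growth of the strain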; conditions: S. cerevisiae deletion strains, growth OD, locus YJL115W, strain asf1, active compounds read low
Screen size: about 5,500 compounds; about 2,000 (36%) were called active. Roughly 18% stayed inconclusive and do not appear here. The list shows a part of the results.
Value kind: normalized growth

>>> print(df.to_string())
                              smiles_string  result_number
0                O=C(CNC(=O)c1ccc(Cl)cc1)NO           1.02
1   N=C(N)c1ccc(OCCCCCOc2ccc(C(=N)N)cc2)cc1          0.923
2  C/C=C1\[C@H]2C=C(C)C[C@]1(N)c1ccc(=O)[nH]c1C2           1.02
3                   O=c1[nH]cc(F)c(=O)[nH]1          0.697
4  CC(C)(C#N)O[C@@H]1O[C@H](CO)[C@@H](O)[C@H](O)[C@H]1O          0.999
5           Nc1ccc(S(=O)(=O)c2ccc(N)cc2)cc1              1

---

test: chemical genetic growth profiling, strain panel (AID 1159580);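 also: tested at 20 µM; growth read once vehicle control cultures reached saturation at 30 °C; 1 = growth at the plate median or of vehicle wells; lower values mean less growth of the strain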; details: S. cerevisiae deletion strains, growth OD, locus YLR371W, strain rom2
Out of some 5,500 compounds screened, about 2,000 (36%) were called active. Inconclusive results (about 18%) are left out. No stated cut-off is given here; in the data, active means normalized growth mostly below about 0.91 (no sharp cut-off); inconclusive means no clear call, values can overlap the other calls; inactive means mostly above about 0.92. This is one part of the list.
Possible outcomes: 1.0 for active, 0.0 for inactive

In [3]: df
Out[3]:
                                    molecule  answer_label
 0  C/C=C1\[C@H]2C=C(C)C[C@]1(N)c1ccc(=O)[nH]c1C2           0.0
 1   N=C(N)c1ccc(OCCCCCOc2ccc(C(=N)N)cc2)cc1           0.0
 2  Nc1c2ccccc2nc2ccccc12 (tested in a mixture with another compound)           0.0
 3  CC(=O)NC(C(=O)O)C(C)(C)SN=O (stereo unspecified)           0.0
 4                   O=c1[nH]cc(F)c(=O)[nH]1           1.0
 5  COC(=O)C[C@H]1C(C)(C)C(=O)[C@@H]2CC3C4=CC(=O)O[C@@H](c5ccoc5)[C@]4(C)CCC3[C@@]1(C)C2=O (stereo partly specified)           0.0
 6  Nc1c2c(nc3ccccc13)CCCC2O (stereo unspecified)           0.0
 7      CCCOc1ccccc1-c1nc2n[nH]nc2c(=O)[nH]1           0.0
 8                          NNc1nncc2ccccc12           0.0
 9            COc1ccc2c3c([nH]c2c1)C(C)=NCC3           0.0
10  Cc1ccc(-c2cc(C(F)(F)F)nn2-c2ccc(S(N)(=O)=O)cc2)cc1           0.0

---

assay: chemical genetic growth profiling, strain panel (AID 1159580);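 also: tested at 20 µM; growth read once vehicle control cultures reached saturation at 30 °C; 1 = growth at the plate median or of vehicle wells; lower values mean less growth of the strain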; conditions: S. cerevisiae deletion strains, growth OD, locus YLR221C, strain rsa3, active compounds read low
About 2,000 (36%) of roughly 5,500 compounds were called active. Another 18% or so got no clear call; they are omitted. The list shows a part of the results.
// values below are reported normalized growth

Molecule	normalized growth
CC1(C)CC[C@@]2(C(=O)O)C(C1)C1=CCC3[C@@]4(C)CC[C@H](O)C(C)(C)C4CC[C@@]3(C)[C@]1(C)C[C@@H]2O (some centres undefined)	1.02 (inactive)
CC(CC(=O)C1OC1(C)C)C1C(=O)CC2(C)C3=CCC4C(C)(C)C(OC5OCC(O)C(O)C5O)CCC45CC35C(O)CC12C (centres undefined)	1.02 (inactive)
COC1=C[C@@H]2[C@@H]3Cc4ccc(OC)c(O)c4[C@]2(CCN3C)CC1=O	0.993 (inactive)
FC(F)(F)c1ccccc1-n1ccnc1	0.985 (inactive)
C/C=C(/C)C(=O)O[C@@H]1[C@H](OC(C)=O)[C@@]2(CO)C(CC1(C)C)C1=CCC3[C@@]4(C)CC[C@H](O[C@@H]5O[C@H](C(=O)O)[C@@H](O[C@@H]6O[C@H](CO)[C@@H](O)[C@H](O)[C@H]6O)[C@H](O)[C@H]5O[C@@H]5O[C@H](CO)[C@@H](O)[C@H](O)[C@H]5O)[C@](C)(CO)C4CC[C@@]3(C)[C@]1(C)C[C@H]2O (some centres undefined)	1 (inactive)
C[C@@H]1CC[C@]2(C(=O)O)CC[C@]3(C)C(=CCC4[C@@]5(C)CC[C@H](O)C(C)(C)C5CC[C@]43C)C2[C@H]1C (some centres undefined)	1 (inactive)
C[C@@H]1CC[C@H]2[C@@H](C)C(O)O[C@@H]3O[C@@]4(C)CC[C@@H]1[C@]32OO4 (some centres undefined)	0.204 (active)
CC(C)(C#N)O[C@@H]1O[C@H](CO)[C@@H](O)[C@H](O)[C@H]1O	1.03 (inactive)
Clc1ccccc1C(c1ccccc1)(c1ccccc1)n1ccnc1	0.0591 (active)
CCC(C)C(NC)C(=O)O (centres undefined)	1.03 (inactive)
Cc1cc(O)ccc1Cl	0.994 (inactive)
C[C@@H]1C(=O)O[C@H]2[C@H]1CC[C@@]1(C)C=CC(=O)[C@@]3(C)O[C@@]213	1.01 (inactive)
C[C@H]1[C@H](C)CC[C@]2(CO)CC[C@]3(C)C(=CCC4[C@@]5(C)CC[C@H](O)C(C)(C)C5CC[C@]43C)[C@H]12 (some centres undefined)	0.986 (inactive)
C#C[C@]1(OC(C)=O)CCC2C3CCC4=C/C(=N\O)CCC4C3CC[C@@]21CC (some centres undefined)	0.638 (active)
Cc1ccc(-c2cc(C(F)(F)F)nn2-c2ccc(S(N)(=O)=O)cc2)cc1	1.03 (inactive)
CCC(C)C(=O)O[C@H]1[C@H](O)C2C(CN3CC(C)CCC3[C@@]2(C)O)C2C[C@]34O[C@]5(O)C(OC(=O)C(C)(O)CC)CC[C@@]3(C)C5C(OC(C)=O)[C@@H](OC(C)=O)C4[C@@]21O (some centres undefined)	1.01 (inactive)
CCOP(=S)(OCC)Oc1nc(Cl)c(Cl)cc1Cl	0.852 (active)
CC1=NS(=O)(=O)c2cc(Cl)ccc2N1	0.986 (inactive)
Cc1cc(O)cc(=O)o1	1.03 (inactive)
